- target or test system: T1, recombinant human IL-1 beta (human, UniProt P01584 117-269)
- T1 construct: Bought protein; also called rhIL-1 beta; rhIL1-beta
- assay name: ELISA, cleared E. coli lysate on coated rhIL-1 beta

binder	binding result
DLX2689 (scFv, tested as cleared E. coli lysate; also called DLX2544_2531) scFv: ADIVMTQSPSTLSASVGDRVTITCQASQSISSYLSWYQQKPGKAPKLLIYKASTLASGVPSRFSGSGSGTDFTLTISSLQPEDFATYYCQNAGGGINIAFGQGTKVEIKRGGGGSGGGGSGGGGSGGGGSEVQLVESGGGNVQPGGSLRLSCTASGFSLSNSAMAWVRQAPGKGLEWVGIIYDSASTYYASWAKGRFTISRDNSKNTVYLQMNSLRAEDTATYYCARERAIFSGDFALWGQGTLVTVSS	binds
DLX2680 (scFv, tested as cleared E. coli lysate; also called DLX2529_2530) scFv: EIVMTQSPSTLSASVGDRVIITCRASQSIGNWLSWYQQKPGKAPKLLIYRASNLASGVPSRFSGSGSGAEFTLTISSLQPEDFATYYCQNTGGGINIAFGQGTKLTVLGGGGGSGGGGSGGGGSGGGGSEVQLVESGGGNVQPGGSLRLSCTASGFSLSDAAMAWVRQAPGKGLEWVGIIYDSASTFYASWAKGRFTISRDNSKNTLYLQMNSLRAEDTATYYCARERNIFSGDMALWGQGTTVTVSS	binds
